test: qHTS assay to identify small molecule antagonists of the sonic hedgehog signaling (Shh) pathway (AID 1259369); conditions: NIH/3T3 Gli1-Luc reporter, Shh antagonist, luminescence 24 h; series mostly up to 92.4 µM; note: nearly all actives have a fitted effect of over 45% in size
Results filed as inconclusive are left out. Calls of active or inactive are those of the source. Calls come from the whole dose curve.
Outcome codes: 1.0 = active, 0.0 = inactive

- MOLECULE: "CC(=O)OC[C@H]1O[C@@](COC(C)=O)(O[C@H]2O[C@H](COC(C)=O)[C@@H](OC(C)=O)[C@H](OC(C)=O)[C@H]2OC(C)=O)[C@@H](OC(C)=O)[C@@H]1OC(C)=O"
  LABEL_VALUE: 0.0
- MOLECULE: "CC(=O)OC(C)(C)C1CC=C(C)CC1 (stereo not given)"
  LABEL_VALUE: 0.0
- MOLECULE: "O=C(O)C1=NN(c2ccc(S(=O)(=O)O)cc2)C(=O)C1"
  LABEL_VALUE: 0.0
- MOLECULE: "CC1(C)C(=O)N(Cl)C(=O)N1Cl"
  LABEL_VALUE: 0.0
- MOLECULE: "C=CC(=O)NCOCCCC"
  LABEL_VALUE: 0.0
- MOLECULE: "O=[N+]([O-])c1cc(C(F)(F)F)ccc1Cl"
  LABEL_VALUE: 0.0
- MOLECULE: "Brc1ccc(Oc2ccc(Br)cc2)cc1"
  LABEL_VALUE: 0.0
- MOLECULE: "C=CC(C)(C)C"
  LABEL_VALUE: 0.0
- MOLECULE: "CC1(C)[C@@H](O[C@H]2O[C@H](C(=O)O)[C@@H](O)[C@H](O)[C@H]2O[C@@H]2O[C@H](C(=O)O)[C@@H](O)[C@H](O)[C@H]2O)CC[C@]2(C)[C@H]3C(=O)C=C4[C@@H]5C[C@@](C)(C(=O)O)CC[C@]5(C)CC[C@@]4(C)[C@]3(C)CC[C@@H]12"
  LABEL_VALUE: 0.0
- MOLECULE: "Cc1ccccc1C=O"
  LABEL_VALUE: 0.0
- MOLECULE: "NC(=O)NC(N)=O"
  LABEL_VALUE: 0.0
- MOLECULE: "C=C1C[C@]23C[C@@]1(O)CC[C@H]2[C@@]12C=C[C@H](O)[C@@](C)(C(=O)O1)[C@H]2[C@@H]3C(=O)O"
  LABEL_VALUE: 0.0
- MOLECULE: "OCC(O)CS (stereo not given)"
  LABEL_VALUE: 0.0
- MOLECULE: "N[C@@H](Cc1cc(I)c(Oc2ccc(O)c(I)c2)c(I)c1)C(=O)O"
  LABEL_VALUE: 0.0
- MOLECULE: "Cc1ccc(Cl)cc1"
  LABEL_VALUE: 0.0
- MOLECULE: "CCCCCCCC(=O)O"
  LABEL_VALUE: 0.0
- MOLECULE: "Nc1cccc(N)n1"
  LABEL_VALUE: 0.0
- MOLECULE: "CCCOC(=O)NCCCN(C)C"
  LABEL_VALUE: 0.0
- MOLECULE: "COc1c2ccoc2cc2oc(=O)ccc12"
  LABEL_VALUE: 0.0
- MOLECULE: "Cc1ccc(C(C)C)cc1"
  LABEL_VALUE: 0.0
- MOLECULE: "Cc1cc(C)cc(O)c1"
  LABEL_VALUE: 1.0
- MOLECULE: "CC(C)=CCC/C(C)=C/C=O"
  LABEL_VALUE: 0.0
- MOLECULE: "OCc1ccc(Cl)cc1Cl"
  LABEL_VALUE: 0.0
- MOLECULE: "O=C1OC(=O)c2c(Cl)c(Cl)c(Cl)c(Cl)c21"
  LABEL_VALUE: 0.0
- MOLECULE: "CCc1cccc(CC)c1N"
  LABEL_VALUE: 0.0
- MOLECULE: "O=C1O[C@H]([C@H](O)CO)C(O)=C1O"
  LABEL_VALUE: 0.0
- MOLECULE: "CCCOCC(C)O (stereo not given)"
  LABEL_VALUE: 0.0
- MOLECULE: "COC(=O)/C=C\\C(=O)OC"
  LABEL_VALUE: 0.0
- MOLECULE: "COc1c(Cl)ccc(Cl)c1C(=O)O"
  LABEL_VALUE: 0.0
- MOLECULE: "COC(=O)OC"
  LABEL_VALUE: 0.0
- MOLECULE: "O=c1c(O)c(-c2ccc(O)c(O)c2)oc2cc(O)cc(O)c12"
  LABEL_VALUE: 0.0
- MOLECULE: "CC(=O)CC(=O)N(C)C"
  LABEL_VALUE: 0.0
- MOLECULE: "CCCCCCCCCCCCCC(=O)O"
  LABEL_VALUE: 0.0
- MOLECULE: "CN=C(NC#N)NCCSCc1nc[nH]c1C"
  LABEL_VALUE: 0.0
- MOLECULE: "CC[N+](CC)(CC(=O)Nc1c(C)cccc1C)Cc1ccccc1"
  LABEL_VALUE: 0.0
- MOLECULE: "O=C(O)Cc1c[nH]c2ccccc12"
  LABEL_VALUE: 0.0
- MOLECULE: "OCC(CO)(CO)CO"
  LABEL_VALUE: 0.0
- MOLECULE: "Cc1ccc([N+](=O)[O-])cc1N"
  LABEL_VALUE: 0.0
- MOLECULE: "OC[C@H]1O[C@@H](Oc2ccc(O)cc2)[C@H](O)[C@@H](O)[C@@H]1O"
  LABEL_VALUE: 0.0
- MOLECULE: "CC/C=C(\\C(=O)N[C@@H]1C(=O)N2C(C(=O)OCOC(=O)C(C)(C)C)=C(COC(N)=O)CS[C@H]12)c1csc(N)n1"
  LABEL_VALUE: 0.0
- MOLECULE: "CCCCC(CC)COC(=O)c1ccc(C(=O)OCC(CC)CCCC)cc1 (stereo not given)"
  LABEL_VALUE: 0.0
- MOLECULE: "COc1cc(NC(=O)CC(C)=O)c(OC)cc1Cl"
  LABEL_VALUE: 0.0
- MOLECULE: "OC1CCCCC1"
  LABEL_VALUE: 0.0
- MOLECULE: "Cc1cc(C)c(O)c(C)c1"
  LABEL_VALUE: 0.0
- MOLECULE: "CN1CCCC1=O"
  LABEL_VALUE: 0.0
- MOLECULE: "CC(=O)OC/C=C(\\C)CCC=C(C)C"
  LABEL_VALUE: 0.0
- MOLECULE: "CN1Cc2c(N)cccc2C(c2ccccc2)C1 (stereo not given)"
  LABEL_VALUE: 0.0
- MOLECULE: "C=C(CC(=O)O)C(=O)O"
  LABEL_VALUE: 0.0
- MOLECULE: "O=C(c1ccccc1)c1ccc(O)c(O)c1O"
  LABEL_VALUE: 1.0
- MOLECULE: "NC(=O)c1ncn([C@@H]2O[C@H](CO)[C@@H](O)[C@H]2O)n1"
  LABEL_VALUE: 0.0
- MOLECULE: "CC(C)(C)NC[C@H](O)COc1nsnc1N1CCOCC1"
  LABEL_VALUE: 0.0
- MOLECULE: "Clc1cccc(Cl)c1NC1=NCCN1"
  LABEL_VALUE: 0.0
- MOLECULE: "CC(=O)Nc1ccc(CC(=O)O)cc1"
  LABEL_VALUE: 0.0
- MOLECULE: "CCCCCNCCCCC"
  LABEL_VALUE: 0.0
- MOLECULE: "Oc1ccc(Cc2ccccc2O)cc1"
  LABEL_VALUE: 1.0

The measured values listed here are drawn from PubChem BioAssay (Tox21).
